Below is a list of entries, each paired with its recorded inhibition value.
Target: Protein RecA (Mycobacterium tuberculosis (strain ATCC 25618 / H37Rv))
Experiment: Mtb RecA intein splicing inhibitors, primary screen, biochemical, fluorescence, HTS (AID 2221);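 also: 0% = vehicle wells and 100% = reference inhibitor control wells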
Conditions: cell-free RecA intein splicing, active compounds read high, concentration not given here
Out of some 290,000 compounds screened, about 2,200 (0.76%) were called active. The list comes from a sample in which actives are over-represented; it also holds close analogues and randomly drawn compounds.
endpoint-label: inhibition (%)

[[record]]
compound = "CCN(CC)c1ccc2cc(C(N)=O)/c(=N\\NC(=O)c3ccncc3)oc2c1"
obs_value = -24.7

[[record]]
compound = "COc1cccc(/C=N/Nc2ncc(C(F)(F)F)cc2Cl)c1O"
obs_value = -2.37

[[record]]
compound = "O=C(CCCN=C1NS(=O)(=O)c2ccccc21)OCC(=O)c1ccc(F)c(F)c1"
obs_value = 0.337

[[record]]
compound = "CNC(=O)COC(=O)c1cc(-c2ccc(OC)cc2)nc2ccccc12"
obs_value = -2.37

[[record]]
compound = "Cc1cc(C(=O)CCl)c(C)n1CC1COc2ccccc2O1 (centres undefined)"
obs_value = 40.6

[[record]]
compound = "CCSc1ncc(Cl)c(C(=O)Nc2cc(C)ccc2C)n1"
obs_value = -2.65

[[record]]
compound = "S=C(Nc1ccc(Cl)cc1Cl)N1CCCC1"
obs_value = -0.599

[[record]]
compound = "Cc1ccc(-c2nnc(Nc3ccc(C(=O)N(C)C)cc3)c3ccccc23)cc1S(N)(=O)=O"
obs_value = -0.54

[[record]]
compound = "Cc1nn(C)cc1/C=C1\\CCC/C(=C\\c2cn(C)nc2C)C1=O"
obs_value = 1.91

[[record]]
compound = "COc1ccc(CCNC(=O)CCC(=O)NC2CCCCC2)cc1OC"
obs_value = -0.371

[[record]]
compound = "CCCn1nc(C(=O)NNC(=O)CSCC(=O)Nc2cc(C)on2)c2ccccc2c1=O"
obs_value = 1.67

[[record]]
compound = "COc1ccc(N2CC(C(=O)NCCS(=O)(=O)N3CCN(c4ccccc4)CC3)CC2=O)cc1 (centres undefined)"
obs_value = -1.96

[[record]]
compound = "O=C(Nc1ccccc1-c1nnn(CC(=O)N2CCN(c3ccccc3)CC2)n1)c1cccs1"
obs_value = 0.619

[[record]]
compound = "O=C(CN1CCN(C(=S)NC2CCCC2)CC1)Nc1ccc(Oc2ccccc2)cc1"
obs_value = 5.42

[[record]]
compound = "C=CCN(C(=O)Nc1ccc2oc(C)nc2c1)c1ccccc1"
obs_value = 1.61

[[record]]
compound = "COC(=O)c1nc(NC(=O)c2ccc(C(C)(C)C)cc2)n[nH]1"
obs_value = 32.8

[[record]]
compound = "O=C(NC1CCc2ccccc21)C12CN(Cc3ccccc3)CC1C(c1cccc([N+](=O)[O-])c1)=NO2 (centres undefined)"
obs_value = 8.13

[[record]]
compound = "C[C@H](C(=O)CC(=O)OC(C)(C)C)[C@H](O)c1ccc(C(F)(F)F)cc1"
obs_value = 0.927

[[record]]
compound = "COc1ccc(N=C(C)c2sc3ccccc3c2O)cc1"
obs_value = 0.51

[[record]]
compound = "CCOc1ccc(C2NC(=S)NC3=C2CCc2ccccc23)cc1 (centres undefined)"
obs_value = 15

[[record]]
compound = "CN(C)c1ccc(C=NCCc2ccc(S(N)(=O)=O)cc2)cc1"
obs_value = -4.96

[[record]]
compound = "Cc1cccc(OCc2ccc(C(=O)Nc3ccc(F)cc3)cc2)c1"
obs_value = -2.68

[[record]]
compound = "CC1CN(C(=O)CCC(=O)NCCCN2CCC(Cc3ccccc3)CC2)c2cc(Cl)ccc2O1 (centres undefined)"
obs_value = 4.67

[[record]]
compound = "Cc1ccc(-n2c(=O)cc(N3CCN(Cc4ccccc4)CC3)[nH]c2=O)cc1"
obs_value = -1.51

[[record]]
compound = "C/C(=N\\NC(=O)COc1ccc(C)cc1[N+](=O)[O-])c1ccc2c(c1)OCCO2"
obs_value = 1.11

[[record]]
compound = "COc1ccccc1/C=N\\Nc1cc(C)nc(-n2nc(C)cc2C)n1"
obs_value = 0.767

[[record]]
compound = "O=C(N/N=C/c1c(Cl)[nH]c2ccccc12)c1sc2ccccc2c1Cl"
obs_value = 3.69

[[record]]
compound = "Cc1cccc(NC(=O)c2nc(S(=O)(=O)Cc3ccccc3)ncc2Cl)c1"
obs_value = 78

[[record]]
compound = "CCOC(=O)C1=C(c2ccccc2)NC(=S)NC1c1ccc(Cl)cc1 (centres undefined)"
obs_value = 8.84

[[record]]
compound = "O=C(c1ccc(Cl)cc1)n1cnc2ccccc21"
obs_value = 48.8

[[record]]
compound = "COc1cccc(Nc2nc(N)c([N+](=O)[O-])c(NCc3ccco3)n2)c1"
obs_value = 9.57

[[record]]
compound = "COc1ccc(N2CCN(C(=O)C3CCN(S(=O)(=O)c4ccc(C)cc4)CC3)CC2)cc1"
obs_value = -2.81

[[record]]
compound = "COc1cccc(CNC(=O)C2CCCN(c3ncnc4c3nc3n4CCCCC3)C2)c1 (centres undefined)"
obs_value = 3.28

[[record]]
compound = "Cn1cnc2c1c(=O)n(Cc1ccccc1C#N)c(=O)n2C"
obs_value = -5.24

[[record]]
compound = "Cc1oc2cc([N+](=O)[O-])c(O)c([N+](=O)[O-])c2c1C(=O)c1ccc(Br)cc1"
obs_value = 41.5

[[record]]
compound = "COC(=O)c1nc(NC(=O)c2ccc(Cl)cc2)n[nH]1"
obs_value = -2.52

[[record]]
compound = "COc1ccc(N(CC(=O)NCC2CCCO2)C(=O)CCC(=O)Nc2nccs2)c(OC)c1 (centres undefined)"
obs_value = 1.28

[[record]]
compound = "COC(=O)c1nc(NC(=O)c2ccc(F)cc2)n[nH]1"
obs_value = 22.9

[[record]]
compound = "COc1ccc(Nc2ncnc3ccc(Br)cc23)c(OC)c1"
obs_value = -1.95

[[record]]
compound = "CCOc1ccc(NC(=O)c2nc(SCC)ncc2Cl)cc1"
obs_value = -3.31

[[record]]
compound = "CC1(C)CC(=O)C(N=Nc2ccc(S(=O)(=O)N3CCCCCC3)cc2)=C(O)C1"
obs_value = -0.925

[[record]]
compound = "Cc1cc(C)nc(SCc2nnc(SCC(=O)OC3CCCCC3)o2)n1"
obs_value = 0.246

[[record]]
compound = "COc1ccc(OC)c(/C(C)=N\\NC(=O)c2cc3cc(Cl)ccc3n2C)c1"
obs_value = 9.04

[[record]]
compound = "Oc1ccc(N=Cc2sc3ccccc3c2Cl)cc1"
obs_value = 34.2

